Attribution: ChEMBL document CHEMBL5247574

- Assayed system: Bile acid receptor (Homo sapiens, UniProt Q96RI1)
- Measurement notes: Agonist activity at human FXR expressed in Escherichia coli BL21 (DE3) assessed as effect on europium labeled SRC-1 peptide recruitment by HTRF assay
Attribute measured: EC50

- CC(C)c1onc(-c2c(Cl)cccc2Cl)c1COc1ccc2c(ccn2Cc2ccc(-c3nnn[nH]3)cc2)c1: < 0.1 µM

====

- Assayed system: Bile acid receptor (Homo sapiens)
- Sequence (Q96RI1 whole entry): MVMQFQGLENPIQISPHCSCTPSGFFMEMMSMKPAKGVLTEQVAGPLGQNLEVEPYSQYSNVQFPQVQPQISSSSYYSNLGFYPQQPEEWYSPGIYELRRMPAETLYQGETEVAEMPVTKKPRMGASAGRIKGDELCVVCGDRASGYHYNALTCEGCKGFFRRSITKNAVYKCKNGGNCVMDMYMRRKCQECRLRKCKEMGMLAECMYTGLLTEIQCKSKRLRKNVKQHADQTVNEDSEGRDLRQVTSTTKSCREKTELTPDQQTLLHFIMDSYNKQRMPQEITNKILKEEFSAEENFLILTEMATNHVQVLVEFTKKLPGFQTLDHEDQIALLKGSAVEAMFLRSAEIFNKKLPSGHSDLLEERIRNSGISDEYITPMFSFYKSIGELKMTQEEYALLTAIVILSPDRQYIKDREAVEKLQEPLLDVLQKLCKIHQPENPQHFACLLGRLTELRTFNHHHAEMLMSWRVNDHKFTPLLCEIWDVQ
- Measurement notes: Antagonist activity at FXR in human HepG2 cells
- Assay type: cell-based
pIC50: −log10 of the molar value.
Attribute measured: pIC50

- O=C(O)c1ccccc1-c1ccc(Cn2ccc(OCc3c(-c4ccccc4Cl)noc3-c3cccs3)n2)cc1: 4.91
